- Tested on: E. coli ATCC25922
- protocol.description: Bacterial growth minimal inhibitory concentration (broth microdilution, CLSI M7-A7)
- Type: cell-based
- particulars: Escherichia coli, ATCC25922, cation-adjusted Mueller Hinton Broth, quinolone-sensitive strain
measured.property: MIC (µg/mL)

// below: answered compounds
- C[C@@](CCn1c(=O)oc2cc(C#CC#CC3(N)CC3)ccc21)(C(=O)NO)S(C)(=O)=O [Example 8]: 0.125
- CC(CCn1c(=O)oc2cc(C#CC#CC3(O)COC3)ccc21)(C(=O)NO)S(C)(=O)=O (racemic) [RE2]: 4
- C[C@@](CCn1c(=O)oc2cc(C#CC#C[C@H]3C[C@]3(F)CO)ccc21)(C(=O)NO)S(C)(=O)=O [Example 6]: 0.125

(a) CN1CC(C#CC#Cc2ccc3c(c2)sc(=O)n3CC[C@](C)(C(=O)NO)S(C)(=O)=O)C1 [Example 10]
(b) C[C@@](CCn1c(=O)sc2cc(C#CC#C[C@H]3C[C@]3(F)CO)ccc21)(C(=O)NO)S(C)(=O)=O [Example 11]
(c) COc1ccc(-c2ccc3c(c2)oc(=O)n3CCC(C)(C(=O)NO)S(C)(=O)=O)c(F)c1 (racemic) [RE1]
(d) CN1CC(C#CC#Cc2ccc3c(c2)oc(=O)n3CC[C@](C)(C(=O)NO)S(C)(=O)=O)C1 [Example 9]
Would you mind ranking these compounds by ascending MIC? Note for the reader: the ranking is given by listing the labels in the order requested. b, a, d, c
